Where do these numbers come from? They come from the nanobody polyreactivity screen of Harvey et al. (2022).

test: yeast display, Sf9 membrane polyspecificity reagent, FACS + sequencing; frameworks hold sequencing errors

{"Sequence Data": "QVQLVESGGGLVQAGGSLRLSCAASGSIFTTNAMGWYRQAPGKERELVAAISSRGTSTYYADSVKGRFTISRDNAKNTVYLQMNSLKPEDTAVYYCAADYVYASRHFEYWGQGTQVTVSS", "polyreactivity (PSR sort gate)": "high polyreactivity"}
{"Sequence Data": "HVQLVESGGGLVQAGGSLRLSCAASGITFYDNVMGWYRQAAGKERELVAAITDSGGSTYYADSVKGRFTISRDNEKNTDYLQMNSLNPEDTAVYYCNAEVNAHWWWYIEDYWGQGTQVTVSS", "polyreactivity (PSR sort gate)": "low polyreactivity"}
{"Sequence Data": "QVQLVESGGGLVQAGGSLRLSCAASGGTFAYYTMGWYRQAPGKERELVAAISSGGRTNYADSVKGRFTISRDNAKNTVYLQMNSLKPEDTAVYYCAAESPLVYYSYPAYYKYYEYEYWGQGTQVTVSS", "polyreactivity (PSR sort gate)": "low polyreactivity"}
{"Sequence Data": "QVQLVESGGGLFQAGGSLRLSCAASGFIFYPNAMGWYRQAPGKEREWVAAITDSGGSTYYADSVKGRFTISRDNAKNTVYLQMNSLKPEDTAVYYCNADYGGYYWTWGYDYWGQGTQVTVSS", "polyreactivity (PSR sort gate)": "low polyreactivity"}
{"Sequence Data": "QVQLVESGGGLVQAGGSLRLSCAASGNIFPYNAMAWYRQAPGKERELVATISSGGSTYYADSVKGRFTISRDNAKNTVYLQMNSLKPEDTAVYYCAARGRYPYRYGYWGQGTQVTVSS", "polyreactivity (PSR sort gate)": "high polyreactivity"}

---

experiment: yeast display, Sf9 membrane polyspecificity reagent, FACS + sequencing; frameworks hold sequencing errors

{"Sequence Data": "QVQLVESGGGLVQAGGSLRLSCAASGLIFYRNAMGRTRQAPGKERELVAAISASGGRTYYADSVKGRFTISRDTEKNTVYLPMNSLKPEDTAVYYCAAKSLLLSMDYWGQGTQVTVSS", "polyreactivity (PSR sort gate)": "high polyreactivity"}
{"Sequence Data": "QVQLVESGGGLVQAGGSLRLSCAASGFIFAGYALGWYRQAPGKERELVAAISSGGGSTYYADSVKGRFTISRDNAKNTGYLQMNSLKPEDTAVYYCAARRLYPPGYYYWGQGTQVTVSS", "polyreactivity (PSR sort gate)": "high polyreactivity"}
{"Sequence Data": "QVQLVESGGGLVQAGGSLRLSCAASGRTFAYYAMGWYRQAPGKERELVATITWNGGSTYYADSVKGRFTISRDNAKNTVYLQMNSLKPEDTAVYYCAVRLWFDYNYWGQGTQVTVSS", "polyreactivity (PSR sort gate)": "low polyreactivity"}
{"Sequence Data": "QVQLVESGGVLVQAGGSLRLSCAASGSTFEDYTMGWYRQAPRKVRELVAISTRGGTYYADSVKGRFTSSRDNPKNTVYLQRNSLKPEDTAVYYCNKRFGYYSWDQYSRDYWGQGTQVTVSS", "polyreactivity (PSR sort gate)": "low polyreactivity"}
{"Sequence Data": "QVQLVESGGGLVQAGGSLRLSCAASGSIFPGYAMAWYRQAPGKERELVAAISRSGGITYYADSVKGRFTISRDNAKNTVYLQMNSLKPEDTSVYYCAKTLPSNGHYDYWGQGTQVTVSS", "polyreactivity (PSR sort gate)": "low polyreactivity"}
{"Sequence Data": "QVQLVESGGGLVQAGGSLRLSCAASGLIFKVYALGWYRQAPGQERELVAAITYSGGSTDYADSVKGRFTISRDNAKNTVYLQMNSLKPEDTAVYYCNVETVGHVNSYGYDYWGQGTQVTVSS", "polyreactivity (PSR sort gate)": "low polyreactivity"}
{"Sequence Data": "QVQRVESGGGLVQAGGSLRLSFAASGSTDGRYARGWYSQAPVQDTELVAAITRNGGRTYYADSVKGCFTISRDNAKNTVYLQMNSLKPEHTADEYCAASGRSQYGDYDDWGQGSQVTVSS", "polyreactivity (PSR sort gate)": "high polyreactivity"}
{"Sequence Data": "QVQLVESGGGLVQAGGSLRLSCAASGIIFWDNAMGWYRQAPGKERELVASINYSGGSTYYADSVKGRFTISRDNAKNTVYLQMNSLKPEDTAVYYCAARTVTLDDWDYAYDYWGQGTQVTVSS", "polyreactivity (PSR sort gate)": "low polyreactivity"}
{"Sequence Data": "QVQLVESGGGLVQAGGSLRLSCAASGFTFSWYAMGWYRPAPGKERELVAAISWDGDSTYYADSVKGRFTISRDNAKNTVYLQMNSLIPEDTAVYYCAADFYYYWDGYDYWGQGTQVTVSS", "polyreactivity (PSR sort gate)": "high polyreactivity"}

---

test: yeast display, Sf9 membrane polyspecificity reagent, FACS + sequencing; frameworks hold sequencing errors
Test Readout: polyreactivity (PSR sort gate)

{"Sequence Data": "QVQLVESGGGLVQAGGSLRLSCAASGSIFSQYAMGWYRQAPGKERELVDAITYGGGSTYYADSVKGRFTISRDNAKNTVYLQMNSLKPEDTAVYYCNADGWNTYIGPRRYRYDYWGQGTQVTVSS", "Reported Measurement": "low polyreactivity"}
{"Sequence Data": "QVQLVESGGGLVQAGGSLRLSCAASGRIFLSYAMGWYRQAPGKERELVAAITDNGGDTYYADSVKGRFTISRDNAKNTVYLQMNILKPEDTAVYYCAVDGGEFSSYGYWGQGTQVTVSS", "Reported Measurement": "low polyreactivity"}
{"Sequence Data": "QVQLVESGGGLVQAGGSLRLSCAASGFIFWRNTMGWYRQAPGKERELVAVITRGGSTYYADSVKGRFTISRDNAKNTVYLQMNSLKPEDTAVYYCAARNDYYKTFSGYDYWGQGTQVTVSS", "Reported Measurement": "low polyreactivity"}
{"Sequence Data": "QVQLVESGGGLVQAGGSLRLSCAASGRIFSNNAIGWYRQAPGKARELVAAHSWNGGRTYYADSVKGRFTISRDNGKNTVYLQMNSLQPEDPAVYYCTKHDAQTRSFASTWYVYWGQGTQVTVSS", "Reported Measurement": "high polyreactivity"}
{"Sequence Data": "QVQLVESGGGLVQAGGSLRLSCAASGNTFYRYAMGRYRQAPGKEREFVAGITSRGGSTSYADSVKGRFTISRDSAKNTVYLQMNILKPEDTAVYYCAARYSKVHFAYDYWGQGTQVTVSS", "Reported Measurement": "high polyreactivity"}
{"Sequence Data": "QVQLVESGGGLVQAGGSLRLSCAASGRIFGYYGMGWYRQAPGNERELVAAITYRGGSTYYADSVKGRFTISRDNAKNTVYLQMNSLKPEDTVVYYCGADGYSNYRYLYDYWGQGTQVTVSS", "Reported Measurement": "low polyreactivity"}
{"Sequence Data": "QVQLVESGGGLVQAGGSLRLSCAASGFIFQTNVMGWYRQAPGKERELVAAISSGDSTYYADSVKGRFTISRDNAKNTVYLQMNSLKPEDTAVYYCAADVLGTTTTVGGFNYWGQGTQVTVSS", "Reported Measurement": "low polyreactivity"}

---

assay: yeast display, Sf9 membrane polyspecificity reagent, FACS + sequencing; frameworks hold sequencing errors
Test Readout: polyreactivity (PSR sort gate)

{"Sequence Data": "QVQLVESGGGLVPAGGSLRLSCAASGRTFWIYAMGWYRQAPGKERELVASIRWSTGNTNYADSVKGRFTISRDNAKNTVYLQMNSLLPEDTAVYYCNARRRWRGGPTYIYWGQGTQVTVSS", "Reported Measurement": "high polyreactivity"}
{"Sequence Data": "QVQLVESGGGLVQAGGSLRLSCAASGTFSNYAMGWYRQAPGKERELVAGISKRGGSTYYADSVKGRFTISRDNAKNTVYLQMNSLKPEDTAVYYCRVYAYDYWGQGTQVTVSS", "Reported Measurement": "low polyreactivity"}
{"Sequence Data": "QVQLVESGGGLVQAGGSLRLSCAASGRTFLYVMGWNIQAPGKERELVAASSRGGSTSYADSVKGRFTISRDNAKNTVYLQMNSMKPEVTAVYYCAATNYWRDGYWGQGTQVTVSS", "Reported Measurement": "high polyreactivity"}
{"Sequence Data": "QVQLVESGGGLVQAGGSLRLSCAASGNTLASYAMGWYRQAPGKEREFVAAITNRSGSTYYADSVKGRFTISRDNAKNTVYLQMNSLKPEDTAVYYCAARYGRRSGQMGYWGQGTQVTVSS", "Reported Measurement": "high polyreactivity"}
{"Sequence Data": "QVQLVESGGGLVQAGGSLRLSCAASGFIFTQNAMGWYRQAPGKERELVAVIRWNGGSTYYADSVKGRITISRDNAKNTVYLQMNSLKREDTAVYYCAAEFLWIVDYWGQGTQVTVSS", "Reported Measurement": "low polyreactivity"}
{"Sequence Data": "QVQLVESGGGLVQAGGSLRLSCAASGFIFRDNAKGWYRQAPGKERELVAAISSGGTTKYADSVKGRFTISRDNAKNTVYLQMNSLKPEDTAVYYCAKGYAARIWRIYSRLYYWGQGTQVTVSS", "Reported Measurement": "high polyreactivity"}
{"Sequence Data": "QVQLVESGGGLVQAGGSLRLSCAASGSTFVGYFMGWYRQAPGKERELVAAITKIGGSTYYADSVKGSFTISRDNAKNNVYLQMNSLKPEDTAVYYCARTRSRWRYPIFYYWGQGTQVTVSS", "Reported Measurement": "high polyreactivity"}
{"Sequence Data": "QVQLVESGGGLVQAGGSLRLSCAASGSTFTPYAMGWYRPAPGKERELVATISSRGGSTSYADSVKGRFTISRDNAKNTVYLQMNSLKPEDTAVYYCARKVRRVARIMYYWGQGTQVTVSS", "Reported Measurement": "high polyreactivity"}
{"Sequence Data": "QVQLVETAGGLVHAGGSLRLSCADSGRIFERNAMGWNRQSPGKERELVARITSGGGTYYADSVKGRFTISRDNAKNTVYLQMNSLKPEDTAVYYCAVQYLYRKYRRYDYWGQGTQVTVSS", "Reported Measurement": "high polyreactivity"}
{"Sequence Data": "QVQLQESGGGLVQAGGSLRLSCAASGTISPLPAMGWYRQAPGKEREFVAGIDTGAITNYADSVKGRFTISRDNAKNTVYLQMNSLIAEDTAVYYCAVFPAAYDYYERYYTYWGQGTQVTVSS", "Reported Measurement": "low polyreactivity"}
{"Sequence Data": "QVQLVESGGGLVQAGGSLRLSCAASGSIFQGNAMGWYRQAPGKERDLVAAISGGDSTNYADSVKGRFTISRDNAKNNVYLQMNSLKPEDTAVFYCNALSHWAPASYEYDYWGQGTQVTVSS", "Reported Measurement": "low polyreactivity"}
{"Sequence Data": "QVQLVESGGGLVQAGGSLRLSCAASGSIFYYNTMGWYRQAPGKAREFVADISVNGGSTYYADSVKGRFTISRDNAKNTVYLQMNSLKPEDSAVYYCAARRYQRPHGLYGYWGQGTQVTVSS", "Reported Measurement": "low polyreactivity"}
